Source: patent US20070149562A1

Recorded melting point values for a group of molecules are listed next.
Counter-ions that a name gives are not always drawn.
reported metric: melting point

{"molecule": "NCC(=O)N[C@H]1CC[C@@H](N[C@H](Cc2ccc(Cl)cc2)C(=O)N2CCC(Cn3cncn3)(C3CCCCC3)CC2)CC1 (as salt: HCl)", "test value": "128 °C"}
{"molecule": "O=C([C@@H](Cc1ccc(Cl)cc1)NC1CCNCC1)N1CCC(Cn2cncn2)(C2CCCCC2)CC1 (as salt: HCl)", "test value": "255 °C"}
{"molecule": "N[C@H]1CC[C@@H](N[C@H](Cc2ccc(Cl)cc2)C(=O)N2CCC(Cn3cncn3)(C3CCCCC3)CC2)CC1 (as salt: HCl)", "test value": "159 °C"}
{"molecule": "CS(=O)(=O)N1CCC(N[C@H](Cc2ccc(Cl)cc2)C(=O)N2CCC(Cn3cncn3)(C3CCCCC3)CC2)CC1 (as salt: HCl)", "test value": "> 200 °C"}
{"molecule": "O=C([C@@H](Cc1ccc(Cl)cc1)NC1CCOCC1)N1CCC(Cn2cncn2)(C2CCCCC2)CC1", "test value": "75 °C"}
